- SYSTEM_NAME: FRK (human) (UniProt P42685)
- Sequence (P42685 whole entry, looked up): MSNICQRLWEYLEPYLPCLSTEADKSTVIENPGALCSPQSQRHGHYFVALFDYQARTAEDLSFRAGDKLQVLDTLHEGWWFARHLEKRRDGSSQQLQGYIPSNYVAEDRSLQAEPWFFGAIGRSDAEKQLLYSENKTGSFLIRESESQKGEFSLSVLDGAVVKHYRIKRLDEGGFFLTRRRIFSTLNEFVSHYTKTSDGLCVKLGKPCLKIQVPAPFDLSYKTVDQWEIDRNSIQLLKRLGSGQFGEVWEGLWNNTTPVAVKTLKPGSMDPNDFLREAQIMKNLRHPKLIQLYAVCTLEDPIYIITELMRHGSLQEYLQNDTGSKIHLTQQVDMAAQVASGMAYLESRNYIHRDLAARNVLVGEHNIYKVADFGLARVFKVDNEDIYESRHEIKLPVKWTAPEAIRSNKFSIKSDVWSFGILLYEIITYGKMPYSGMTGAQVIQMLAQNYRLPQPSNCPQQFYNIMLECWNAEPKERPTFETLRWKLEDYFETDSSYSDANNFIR
- EXPERIMENTAL_PROTOCOL: KINOMEscan competition binding
- CONDITIONS: compound 10.0 µM
Quick reference for kinase still bound, per cent of control among some molecules
MEASUREMENT_KIND: kinase still bound, per cent of control

[[record]]
given_smiles = "O=C(NOC[C@H](O)CO)c1ccc(F)c(F)c1Nc1ccc(I)cc1F"
system_name = "FRK (human) (UniProt P42685)"
measurement_kind = "kinase still bound, per cent of control"
readout_value = "60%"

[[record]]
given_smiles = "O=C1Nc2ccc(I)cc2/C1=C/c1cc(Br)c(O)c(Br)c1"
system_name = "FRK (human) (UniProt P42685)"
measurement_kind = "kinase still bound, per cent of control"
readout_value = "45%"

[[record]]
given_smiles = "Cn1c(=O)n(-c2ccc(C(C)(C)C#N)cc2)c2c3cc(-c4cnc5ccccc5c4)ccc3ncc21"
system_name = "FRK (human) (UniProt P42685)"
measurement_kind = "kinase still bound, per cent of control"
readout_value = "100%"

[[record]]
given_smiles = "O=C(O)c1ccc(Nc2ncc3c(n2)-c2ccc(Cl)cc2C(c2c(F)cccc2F)=NC3)cc1"
system_name = "FRK (human) (UniProt P42685)"
measurement_kind = "kinase still bound, per cent of control"
readout_value = "73%"

[[record]]
given_smiles = "Nc1ccc(-c2ccc3ncc4ccc(=O)n(-c5cccc(C(F)(F)F)c5)c4c3c2)cn1"
system_name = "FRK (human) (UniProt P42685)"
measurement_kind = "kinase still bound, per cent of control"
readout_value = "100%"

[[record]]
given_smiles = "C=CC(=O)Nc1cccc(Nc2nc(N[C@H]3CC[C@H](N(C)C)CC3)nc3c2ncn3C(C)C)c1"
system_name = "FRK (human) (UniProt P42685)"
measurement_kind = "kinase still bound, per cent of control"
readout_value = "53%"

[[record]]
given_smiles = "CCCS(=O)(=O)Nc1ccc(F)c(C(=O)c2c[nH]c3ncc(-c4ccc(Cl)cc4)cc23)c1F"
system_name = "FRK (human) (UniProt P42685)"
measurement_kind = "kinase still bound, per cent of control"
readout_value = "16%"

[[record]]
given_smiles = "COc1cc(C(=O)NC2CCN(C)CC2)ccc1Nc1ncc2c(n1)N(C1CCCC1)CCC(=O)N2C(C)C"
system_name = "FRK (human) (UniProt P42685)"
measurement_kind = "kinase still bound, per cent of control"
readout_value = "100%"

[[record]]
given_smiles = "Cc1ccc2nc(NCCN)c3ncc(C)n3c2c1"
system_name = "FRK (human) (UniProt P42685)"
measurement_kind = "kinase still bound, per cent of control"
readout_value = "100%"


---

Quick reference for kinase still bound, per cent of control among some molecules
- SYSTEM_NAME: CDK3 (human)
- EXPERIMENTAL_PROTOCOL: KINOMEscan competition binding
- CONDITIONS: compound 10.0 µM
MEASUREMENT_KIND: kinase still bound, per cent of control (%)

[[record]]
molecule = "Nc1ccc(-c2ccc3ncc4ccc(=O)n(-c5cccc(C(F)(F)F)c5)c4c3c2)cn1"
readout_value = 100

[[record]]
molecule = "CCN1CCN(Cc2ccc(Nc3ncc4c(n3)N(C)c3ccccc3C(=O)N4C)cc2C(F)(F)F)CC1"
readout_value = 100

[[record]]
molecule = "Cn1c(=O)n(-c2ccc(C(C)(C)C#N)cc2)c2c3cc(-c4cnc5ccccc5c4)ccc3ncc21"
readout_value = 100

[[record]]
molecule = "C=CC(=O)Nc1cccc(Nc2nc(N[C@H]3CC[C@H](N(C)C)CC3)nc3c2ncn3C(C)C)c1"
readout_value = 95

[[record]]
molecule = "CC[C@@H]1C(=O)N(C)c2cnc(Nc3ccc(C(=O)NC4CCN(C)CC4)cc3OC)nc2N1C1CCCC1"
readout_value = 100

[[record]]
molecule = "O=C(NOC[C@H](O)CO)c1ccc(F)c(F)c1Nc1ccc(I)cc1F"
readout_value = 69

[[record]]
molecule = "Cc1cc([C@@H](C)Nc2ccccc2C(=O)O)c2nc(N3CCOCC3)cc(=O)n2c1"
readout_value = 100

[[record]]
molecule = "Cc1ccc2nc(NCCN)c3ncc(C)n3c2c1"
readout_value = 100

[[record]]
molecule = "Cc1ccc(NC(=O)c2cccc(C(C)(C)C#N)c2)cc1Nc1ccc2ncn(C)c(=O)c2c1"
readout_value = 100

[[record]]
molecule = "COc1cc(C(=O)NC2CCN(C)CC2)ccc1Nc1ncc2c(n1)N(C1CCCC1)C(C)CC(=O)N2C (stereo unspecified)"
readout_value = 100

[[record]]
molecule = "COc1cc(N2CCN(C)CC2)ccc1Nc1nc(N)c(C(=O)c2c(Cl)cccc2Cl)s1"
readout_value = 97

[[record]]
molecule = "C=CC(=O)Nc1cccc(Oc2nc(Nc3ccc(N4CCN(C)CC4)cc3OC)ncc2Cl)c1"
readout_value = 100

[[record]]
molecule = "O=C1Nc2ccc(I)cc2/C1=C/c1cc(Br)c(O)c(Br)c1"
readout_value = 90

[[record]]
molecule = "O=C(NC1CC1)c1cccc(-c2ccc3c(NC(=O)C4CC4)n[nH]c3c2)c1"
readout_value = 7.2

[[record]]
molecule = "CCOc1cc2ncc(C#N)c(Nc3ccc(OCc4ccccn4)c(Cl)c3)c2cc1NC(=O)/C=C/CN(C)C"
readout_value = 100

[[record]]
molecule = "C=CC(=O)Nc1cc(NC(=O)c2ccc(C)c(NC(=O)c3ccno3)c2)cc(C(F)(F)F)c1"
readout_value = 97

